The origin of these recorded values is patent US12583858B2.

biological target: TDO2 (Homo sapiens, UniProt P48775); construct: decreased levels of NFK in SW48 cells (high TDO expressing cells); assay: TDO2 cell assay (NFK GreenScreen, SW48 cells); format: cell-based; details: SW48 cells (high TDO expressing), 200 uM tryptophan, 24 hours; Table 3; read-out: TDO2 Cell Fluor EC50
Sequence (P48775 whole entry): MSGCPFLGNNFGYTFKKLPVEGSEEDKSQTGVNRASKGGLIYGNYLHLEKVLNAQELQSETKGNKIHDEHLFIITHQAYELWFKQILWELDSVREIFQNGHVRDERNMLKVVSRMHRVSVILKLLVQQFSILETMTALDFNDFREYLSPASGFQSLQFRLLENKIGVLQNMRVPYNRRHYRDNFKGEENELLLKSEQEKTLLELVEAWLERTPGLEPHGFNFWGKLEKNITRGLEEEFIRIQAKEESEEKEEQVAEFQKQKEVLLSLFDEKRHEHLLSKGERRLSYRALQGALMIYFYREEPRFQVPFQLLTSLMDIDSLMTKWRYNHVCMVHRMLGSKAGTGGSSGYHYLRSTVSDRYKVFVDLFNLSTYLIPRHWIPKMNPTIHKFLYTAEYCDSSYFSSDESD
pEC50: −log10 of the molar value.

COMPOUND | RELATION QUALIFIER | pEC50
CC(C)C(O)C1c2ccccc2-c2cncn21 (single isomer, unassigned) [Example 51b] | < | 4.60
CC(C)(C)OC(=O)N1CC2(CC(C3c4ccccc4-c4cncn43)C2O)C1 (single isomer, unassigned) [Example 41f] | = | 4.77
CS(=O)(=O)c1ccc2c(c1)OCC(C1c3ccccc3-c3cncn31)C2O (single isomer, unassigned) [Example 91g] | = | 5.64
O[C@@H]1c2[nH]ncc2CC[C@H]1[C@@H]1c2ccccc2-c2cncn21 (single isomer, unassigned) [Example 157b] | = | 4.66
OC1CCOCC1C1c2cccc(F)c2-c2cncn21 (single isomer, unassigned) [Example 170c] | < | 4.60
NC(=O)c1ccc2c(n1)CCC(C1c3ccccc3-c3cncn31)C2O (single isomer, unassigned) [Example 104g] | = | 6.48
N#CCN1CC[C@@H]([C@H]2c3ccccc3-c3cncn32)[C@H](O)C1 (single isomer, unassigned) [Example 27a] | < | 4.60
O[C@@H]1CCC[C@@H]1[C@H]1c2ccccc2-c2cncn21 [Example 02c] | = | 6.52
OC1CCOCC1C1c2cc(F)ccc2-c2cncn21 (single isomer, unassigned) [Example 75c] | = | 4.72
CC1(C)CCCC(C)(C2c3ccccc3-c3cncn32)C1O (single isomer, unassigned) [Example 90b] | < | 4.60
NC(=O)c1nc2c(s1)CCC(C1c3ccccc3-c3cncn31)C2O (single isomer, unassigned) [Example 149d] | = | 5.02
CC1(C)CCCC(C2c3ccccc3-c3cncn32)C1O (single isomer, unassigned) [Example 24a] | = | 7.24
OC1CCCCCC1C1c2ccccc2-c2cncn21 (single isomer, unassigned) [Example 115a] | = | 4.85
O[C@@H]1c2ccncc2CC[C@H]1[C@H]1c2ccccc2-c2cncn21 [Example 08a] | = | 7.32
NS(=O)(=O)N1CCC2(CC1)CC(C1c3ccccc3-c3cncn31)C2O (single isomer, unassigned) [Example 181d] | = | 5.52
CCS(=O)(=O)N1CC(O)(CC2c3ccccc3-c3cncn32)C1 (single isomer, unassigned) [Example 108a] | = | 5.55
CCS(=O)(=O)N1CC(O)C(C2c3ccccc3-c3cncn32)C1 (single isomer, unassigned) [Example 40c] | < | 4.60
CC1(O)CCC1C1c2ccccc2-c2cncn21 (single isomer, unassigned) [Example 35d] | = | 6.46

* * *

target: TDO2 (Homo sapiens, UniProt P48775); construct: decreased levels of NFK in SW48 cells (high TDO expressing cells); assay: TDO2 cell assay (NFK GreenScreen, SW48 cells); format: cell-based; details: SW48 cells (high TDO expressing), 200 uM tryptophan, 24 hours; Table 3; read-out: TDO2 Cell Fluor EC50

COMPOUND | MEASURED TARGET | EC50
Cc1nc2c(o1)CCC(C1c3ccccc3-c3cncn31)C2O (single isomer, unassigned) [Example 178b] | TDO2 (Homo sapiens, UniProt P48775) | > 25 µM
O[C@@H](C1CCCCC1)[C@@H]1c2ccccc2-c2cncn21 (single isomer, unassigned) [Example 148d] | TDO2 (Homo sapiens, UniProt P48775) | > 25 µM
OC1c2cncn2CC[C@@H]1[C@@H]1c2ccccc2-c2cncn21 (stereo in doubt) [Example 07d] | TDO2 (Homo sapiens, UniProt P48775) | > 25 µM
OC1c2ccnn2CCCC1C1c2ccccc2-c2cncn21 (single isomer, unassigned) [Example 133g] | TDO2 (Homo sapiens, UniProt P48775) | 3 µM
O=c1cccc2n1CCC(C1c3ccccc3-c3cncn31)C2O (single isomer, unassigned) [Example 29e] | TDO2 (Homo sapiens, UniProt P48775) | 0.44 µM
NC(=O)c1nc2c(s1)CCC(C1c3ccccc3-c3cncn31)C2O (single isomer, unassigned) [Example 149h] | TDO2 (Homo sapiens, UniProt P48775) | 24 µM
CCS(=O)(=O)N1CC(O)C(C2c3ccccc3-c3cncn32)C1 (single isomer, unassigned) [Example 40b] | TDO2 (Homo sapiens, UniProt P48775) | 16 µM
OC1CCCC1C1c2ccc(F)cc2-c2cncn21 (single isomer, unassigned) [Example 20d] | TDO2 (Homo sapiens, UniProt P48775) | 0.099 µM
OC1C(C2c3ccccc3-c3cncn32)CC12CCOCC2 (single isomer, unassigned) [Example 57d] | TDO2 (Homo sapiens, UniProt P48775) | > 25 µM
CC1(O)CCC1C1c2ccccc2-c2cncn21 (single isomer, unassigned) [Example 35a] | TDO2 (Homo sapiens, UniProt P48775) | > 25 µM
Cc1ccc2c(c1)-c1cncn1C2C1COCC1O (single isomer, unassigned) [Example 171b] | TDO2 (Homo sapiens, UniProt P48775) | > 25 µM
CC(C)S(=O)(=O)N1CC[C@@H]([C@H]2c3ccccc3-c3cncn32)[C@H](O)C1 (single isomer, unassigned) [Example 80a] | TDO2 (Homo sapiens, UniProt P48775) | > 25 µM
OC1c2ccnn2CCC1C1c2ccccc2-c2cncn21 (single isomer, unassigned) [Example 56g] | TDO2 (Homo sapiens, UniProt P48775) | > 25 µM
OC(c1ccncc1)C1c2ccccc2-c2cncn21 (single isomer, unassigned) [Example 152d] | TDO2 (Homo sapiens, UniProt P48775) | > 25 µM
OC1c2nonc2CCC1C1c2ccccc2-c2cncn21 (single isomer, unassigned) [Example 163f] | TDO2 (Homo sapiens, UniProt P48775) | > 25 µM
NC(=O)c1cc2n(n1)CCC(C1c3ccccc3-c3cncn31)C2O (single isomer, unassigned) [Example 172a] | TDO2 (Homo sapiens, UniProt P48775) | > 25 µM

* * *

// EC50 lookup, one value per entry
target: TDO2 (Homo sapiens, UniProt P48775); construct: decreased levels of NFK in SW48 cells (high TDO expressing cells); assay: TDO2 cell assay (NFK GreenScreen, SW48 cells); assay type: cell-based; settings: SW48 cells (high TDO expressing), 200 uM tryptophan, 24 hours; Table 3; read-out: TDO2 Cell Fluor EC50
REPORTED METRIC: EC50 (nM)

COMPOUND | RELATION QUALIFIER | ASSAY VALUE
CC1(C)OCC(C2c3ccccc3-c3cncn32)C1O (single isomer, unassigned) [Example 85d] | = | 660
O[C@H]1CC[C@H]1[C@H]1c2ccccc2-c2cncn21 [Example 01b] | = | 150
OC1CCCC1C1c2ccccc2-c2cncn21 (single isomer, unassigned) [Example 02h] | > | 25000
CN1CC[C@@H]([C@H]2c3ccccc3-c3cncn32)[C@H](O)C1 [Example 83b] | = | 1400
CC(C)S(=O)(=O)N1CCC(C2c3ccccc3-c3cncn32)C(O)C1 (single isomer, unassigned) [Example 89b] | > | 25000
CN(C)C(=O)c1ccc2c(c1)CCC(C1c3ccccc3-c3cncn31)C2O (single isomer, unassigned) [Example 98h] | = | 9800
Cn1ncc2c1CCC(C1c3ccccc3-c3cncn31)C2O (single isomer, unassigned) [Example 93d] | = | 1400
N#CC1(C(O)C2c3ccccc3-c3cncn32)CC1 (single isomer, unassigned) [Example 153b] | = | 11000
OC1c2nonc2CCC1C1c2ccccc2-c2cncn21 (single isomer, unassigned) [Example 163b] | = | 60
CC(C)(C)OC(=O)N1CCCC(O)(C2c3ccccc3-c3cncn32)C1 (single isomer, unassigned) [Example 127a] | = | 3700
Cn1cc2c(n1)C(O)C(C1c3ccccc3-c3cncn31)CC2 (single isomer, unassigned) [Example 139-1f] | = | 210
OC1c2cnccc2CCC1C1c2ccccc2-c2cncn21 (single isomer, unassigned) [Example 04c] | = | 1000
CC1(O)CCOCC1C1c2ccccc2-c2cncn21 (single isomer, unassigned) [Example 61a] | = | 570
OC1COCCC1C1c2ccccc2-c2cncn21 (single isomer, unassigned) [Example 06g] | = | 560
CC1(C)OC(C)(C)C(C2c3ccccc3-c3cncn32)C1O (single isomer, unassigned) [Example 84f] | > | 25000
CC1(O)CCC1C1c2ccccc2-c2cncn21 (single isomer, unassigned) [Example 35c] | > | 25000
OC1(C2c3ccccc3-c3cncn32)CCC(F)(F)CC1 (racemic) | = | 170
CS(=O)(=O)N1CCC(O)C(C2c3ccccc3-c3cncn32)CC1 (single isomer, unassigned) [Example 92a] | = | 1200
NS(=O)(=O)N1CCC2(CC1)CC(C1c3ccccc3-c3cncn31)C2O (single isomer, unassigned) [Example 181g] | = | 930
CS(=O)(=O)c1ccc2c(c1)CCC(C1c3ccccc3-c3cncn31)C2O (single isomer, unassigned) [Example 36c] | = | 7400
OC1(C2c3ccccc3-c3cncn32)CCOC1 (single isomer, unassigned) [Example 129a] | > | 25000
OC1c2cnccc2CC1C1c2ccccc2-c2cncn21 (single isomer, unassigned) [Example 71a] | = | 17000
O[C@H]1c2ccccc2CC[C@@H]1[C@@H]1c2ccccc2-c2cncn21 [Example 102f] | = | 5400
OC1c2nonc2CCC1C1c2ccccc2-c2cncn21 (single isomer, unassigned) [Example 163h] | = | 930
OC1c2ccnn2CCCC1C1c2ccccc2-c2cncn21 (single isomer, unassigned) [Example 133a] | > | 25000
OC1c2cncnc2CCC1C1c2ccccc2-c2cncn21 (single isomer, unassigned) [Example 94c] | = | 110
